Taken from PubChem BioAssay (NCI).

- Test system: IGROV1 ovarian
- TEST NAME: NCI tumour cell line growth inhibition, 48 h
Catalogue of TGI values

Some solved entries appear below for comparison.
NC1=CN(Cc2ccccc2)C2=N/C(=C\c3ccco3)C(=O)N12 = > 100 µM
CNCC1CCn2c(c(C3=C(c4cn(C)c5ccccc45)C(=O)NC3=O)c3ccccc32)C1 (stereo not given) = 9.9 µM
NC(=O)N/N=C/c1ccccc1O = > 100 µM

IN: Return TGI for the following molecule: `Cc1ccc(S(=O)(=O)NC(=O)NCC(=O)O)cc1`
OUT: > 100 µM

IN: Return TGI for the following molecule: `C[C@]12CC[C@H]3[C@@H](CCC4=CC(=O)CC[C@@]43C)[C@@H]1CC[C@@H]2OC(=O)c1cccc2c(=O)c3ccccc3[nH]c12`
OUT: > 100 µM

IN: Return TGI for the following molecule: COc1ccc(NC(C)=O)cc1N1C(=O)/C(=C\c2cccc(Oc3ccccc3)c2)SC1c1ccccc1 (stereo not given)
OUT: > 100 µM

IN: Return TGI for the following molecule: `COC(=O)c1c(OC(C)=O)ccc2c1c1cc3ccccc3c(OC(C)=O)c1n2C`
OUT: 12.8 µM

IN: Return TGI for the following molecule: Cc1cn(C2CC(O)C(Cn3nncc3Cn3ccc(=O)[nH]c3=O)O2)c(=O)[nH]c1=O (stereo not given)
OUT: > 100 µM
